Record form. Attribute: n (Hill). Fill in for each entry.
# target-entity: rho transcription termination factor (Escherichia coli)
# measurement-conditions: nonlinear regression of velocity curves
Field format: numeric only.

Query n (Hill) for `[Cu+2]`
1

Query n (Hill) for `[Ca+2]`
1

Query n (Hill) for `[Cl][Mn][Cl]`
1

Query n (Hill) for `[Co+2]`
1

Query n (Hill) for `[Mg+2]`
1

Query n (Hill) for `[Cl][Ni][Cl]`
2.9

Query n (Hill) for `[Sr+2]`
1

Query n (Hill) for `[Cd+2]`
4.6

Query n (Hill) for `[O]=[V+2]`
1

Query n (Hill) for `[Cl-].[Cl-].[Zn+2]`
5.5

Query n (Hill) for `[Hg+2]`
1

* * *

# target-entity: rho transcription termination factor (Escherichia coli, UniProt P0AG30)
# measurement-conditions: Mg^2+-free, from activation curves
result-type: Vmax(app) (mol/min/mg)
# output: bare number, implied unit mol/min/mg

Provide Vmax(app), recorded with rho transcription termination factor (Escherichia coli, UniProt P0AG30), of [Sr+2] [Sr^2+]
0.17

Provide Vmax(app), recorded with rho transcription termination factor (Escherichia coli, UniProt P0AG30), of [Cl][Ni][Cl] [Ni^2+]
4.79

Provide Vmax(app), recorded with rho transcription termination factor (Escherichia coli, UniProt P0AG30), of [Hg+2] [Hg^2+]
0.78

Provide Vmax(app), recorded with rho transcription termination factor (Escherichia coli, UniProt P0AG30), of [Ca+2] [Ca^2+]
3.13

Provide Vmax(app), recorded with rho transcription termination factor (Escherichia coli, UniProt P0AG30), of [Co+2] [Co^2+]
7.65

Provide Vmax(app), recorded with rho transcription termination factor (Escherichia coli, UniProt P0AG30), of [Mg+2] [Mg^2+]
12.3

Provide Vmax(app), recorded with rho transcription termination factor (Escherichia coli, UniProt P0AG30), of [Cu+2] [Cu^2+]
1.54

Provide Vmax(app), recorded with rho transcription termination factor (Escherichia coli, UniProt P0AG30), of [Be+2].[Cl-].[Cl-] [Be^2+]
0.21

Provide Vmax(app), recorded with rho transcription termination factor (Escherichia coli, UniProt P0AG30), of [O]=[V+2] [VO^2+]
0.78

* * *

# target-entity: rho transcription termination factor (Escherichia coli, UniProt P0AG30)
# measurement-conditions: absence of MgCl2, 1.9-4000 μM metal
result-type: metal activation profile

> print(dat)
         input.smiles           result
1  [Cl-].[Cl-].[Zn+2]  peak velocities
2        [Cl][Mn][Cl]  peak velocities
3              [Cd+2]  peak velocities

* * *

# target-entity: rho transcription termination factor (Escherichia coli)
# measurement-conditions: read-out: I50, rho poly(C)-dependent ATP hydrolysis; 1 mM MgCl2, estimated
result-type: pIC50
Just so you know, pIC50 here is -log10 of the concentration in molar units; reply with that number alone.

Provide pIC50, recorded with rho transcription termination factor (Escherichia coli), of `[Cl-].[Cl-].[Zn+2]`
3.72

* * *

# target-entity: rho transcription termination factor (Escherichia coli)
# measurement-conditions: 10 mM MgCl2
# Description: Rho poly(C)-dependent ATPase assay. See, generally, Sharp et al., (1983) A kinetic mechanism for the poly(C)-dependent ATPase of the Escherichia coli transcription termination protein, rho, J. Biol. Chem. 258, 3482-3486. […] The TLC plates were exposed to PhosphorImager plates (Fuji and Molecular Dynamics) (3 h), scanned on a Storm 860 PC PhosphorImager and analyzed using Molecular Dynamic's ImageQuant 5.0. […]
result-type: effect on ATP hydrolysis rate in the presence of MgCl2

The cases that follow already have their effect on ATP hydrolysis rate in the presence of MgCl2 on record.
> print(dat)
         input.smiles                             target.entity              result
1              [Co+2]  rho transcription termination factor (Escherichia coli)  negligible effects
2           [O]=[V+2]  rho transcription termination factor (Escherichia coli)  negligible effects
3  [Be+2].[Cl-].[Cl-]  rho transcription termination factor (Escherichia coli)           inhibited
4              [Hg+2]  rho transcription termination factor (Escherichia coli)           inhibited

Query effect on ATP hydrolysis rate in the presence of MgCl2 for `[Ca+2]`
negligible effects

Query effect on ATP hydrolysis rate in the presence of MgCl2 for `[Cl-].[Cl-].[Zn+2]`
inhibited

Query effect on ATP hydrolysis rate in the presence of MgCl2 for `[Cd+2]`
negligible effects

Query effect on ATP hydrolysis rate in the presence of MgCl2 for `[Sr+2]`
negligible effects

Query effect on ATP hydrolysis rate in the presence of MgCl2 for `[Cu+2]`
inhibited

Query effect on ATP hydrolysis rate in the presence of MgCl2 for `[Cl][Ni][Cl]`
negligible effects
